Source listed as patent US8580747B2.

- stated conditions: rat, in vivo, iv, 2 mg/kg
Bridge positions count the residues as written; N and C are the ends. Square brackets hold non-standard residues; d marks the D form. Peptide text beside a SMILES is read from it. * marks the point of attachment. Piperazin2one(3S-Bu,6R-CO) = CCCC[C@@H]1NC[C@H](C(=O)*)NC1=O; X1 = N=C(N)NCCC[C@H]1C(=O)N[C@@H](C(N)=O)CN1*; Nle = CCCC[C@H](N)C(=O)O
Reported AUC is given for each of the following molecules.
# unit: µM·h | format: bare number

{"molecule": "CCCC[C@@H]1NC[C@H](C(=O)N[C@H]2CSSC[C@@H](C(=O)N[C@@H](Cc3ccc(O)cc3)C(=O)N3C[C@H](C(N)=O)NC(=O)[C@@H]3CCCNC(=N)N)NC(=O)[C@H](CO)NC(=O)[C@H]([C@@H](C)CC)NC(=O)[C@H](CCCNC(=N)N)NC(=O)[C@H](CC(=O)O)NC(=O)[C@H](CCCC)NC(=O)[C@H](CCCNC(=N)N)NC(=O)CNC(=O)CNC(=O)[C@@H](Cc3ccccc3)NC(=O)[C@H](Cc3c[nH]cn3)NC2=O)NC1=O [1-39] ({Piperazin2one(3S-Bu,6R-CO)}-CH[dF]GGR[Nle]DRISCY-X1; disulfide 1-12)", "experimental endpoint": "AUC", "measurement units": "µM·h", "quantitative readout": 0.142}

Here is another molecule to look at.
If you can, please state the reported AUC value of CCCC[C@@H]1NC[C@H](C(=O)N[C@H]2CSSC[C@@H](C(=O)N[C@@H](Cc3ccc(O)cc3)C(=O)N3C[C@H](C(N)=O)NC(=O)[C@@H]3CCCNC(=N)N)NC(=O)[C@H](CO)NC(=O)[C@H]([C@@H](C)CC)NC(=O)[C@H](CCCNC(=N)N)NC(=O)[C@@H](CC(=O)O)NC(=O)[C@H](CCCC)NC(=O)[C@H](CCCNC(=N)N)NC(=O)CNC(=O)CNC(=O)[C@H](Cc3ccccc3)NC(=O)[C@H](Cc3c[nH]cn3)NC2=O)NC1=O [1-44] ({Piperazin2one(3S-Bu,6R-CO)}-CHFGGR[Nle][dD]RISCY-X1; disulfide 1-12) . 1.54

----------
Reported clearance is given for each of the following molecules.
- stated conditions: rat, in vivo, iv
Bridge positions count the residues as written; N and C are the ends. Square brackets hold non-standard residues; d marks the D form. Peptide text beside a SMILES is read from it. * marks the point of attachment. Piperazin2one(3S-Bu,6R-CO) = CCCC[C@@H]1NC[C@H](C(=O)*)NC1=O; X1 = N=C(N)NCCC[C@H]1C(=O)N[C@@H](C(N)=O)CN1*; dNle = CCCC[C@@H](N)C(=O)O; Nle = CCCC[C@H](N)C(=O)O
# unit: L/h/kg | format: bare number

{"molecule": "CCCC[C@@H]1NC[C@H](C(=O)N[C@H]2CSSC[C@@H](C(=O)N[C@@H](Cc3ccc(O)cc3)C(=O)N3C[C@H](C(N)=O)NC(=O)[C@@H]3CCCNC(=N)N)NC(=O)[C@H](CO)NC(=O)[C@H]([C@@H](C)CC)NC(=O)[C@H](C)NC(=O)[C@H](CC(=O)O)NC(=O)[C@H](CCCC)NC(=O)[C@H](C)NC(=O)CNC(=O)CNC(=O)[C@H](Cc3ccccc3)NC(=O)[C@H](Cc3c[nH]cn3)NC2=O)NC1=O [1-100] ({Piperazin2one(3S-Bu,6R-CO)}-CHFGGA[Nle]DAISCY-X1; disulfide 1-12)", "experimental endpoint": "clearance", "quantitative readout": 27.4}

Here is another molecule to look at.
If you can, please state the reported clearance value of CCCC[C@@H]1NC[C@H](C(=O)N[C@H]2CSSC[C@@H](C(=O)N[C@@H](Cc3ccc(O)cc3)C(=O)N3C[C@H](C(N)=O)NC(=O)[C@@H]3CCCNC(=N)N)NC(=O)[C@H](CO)NC(=O)[C@H]([C@@H](C)CC)NC(=O)[C@H](CCCNC(=N)N)NC(=O)[C@H](CC(=O)O)NC(=O)[C@@H](CCCC)NC(=O)[C@H](CCCNC(=N)N)NC(=O)CNC(=O)CNC(=O)[C@H](Cc3ccccc3)NC(=O)[C@H](Cc3c[nH]cn3)NC2=O)NC1=O [1-43] ({Piperazin2one(3S-Bu,6R-CO)}-CHFGGR[dNle]DRISCY-X1; disulfide 1-12) . 0.84
